experimental_target: Ubiquitin carboxyl-terminal hydrolase 7 (Homo sapiens, UniProt Q93009)
Sequence (Q93009 whole entry, looked up): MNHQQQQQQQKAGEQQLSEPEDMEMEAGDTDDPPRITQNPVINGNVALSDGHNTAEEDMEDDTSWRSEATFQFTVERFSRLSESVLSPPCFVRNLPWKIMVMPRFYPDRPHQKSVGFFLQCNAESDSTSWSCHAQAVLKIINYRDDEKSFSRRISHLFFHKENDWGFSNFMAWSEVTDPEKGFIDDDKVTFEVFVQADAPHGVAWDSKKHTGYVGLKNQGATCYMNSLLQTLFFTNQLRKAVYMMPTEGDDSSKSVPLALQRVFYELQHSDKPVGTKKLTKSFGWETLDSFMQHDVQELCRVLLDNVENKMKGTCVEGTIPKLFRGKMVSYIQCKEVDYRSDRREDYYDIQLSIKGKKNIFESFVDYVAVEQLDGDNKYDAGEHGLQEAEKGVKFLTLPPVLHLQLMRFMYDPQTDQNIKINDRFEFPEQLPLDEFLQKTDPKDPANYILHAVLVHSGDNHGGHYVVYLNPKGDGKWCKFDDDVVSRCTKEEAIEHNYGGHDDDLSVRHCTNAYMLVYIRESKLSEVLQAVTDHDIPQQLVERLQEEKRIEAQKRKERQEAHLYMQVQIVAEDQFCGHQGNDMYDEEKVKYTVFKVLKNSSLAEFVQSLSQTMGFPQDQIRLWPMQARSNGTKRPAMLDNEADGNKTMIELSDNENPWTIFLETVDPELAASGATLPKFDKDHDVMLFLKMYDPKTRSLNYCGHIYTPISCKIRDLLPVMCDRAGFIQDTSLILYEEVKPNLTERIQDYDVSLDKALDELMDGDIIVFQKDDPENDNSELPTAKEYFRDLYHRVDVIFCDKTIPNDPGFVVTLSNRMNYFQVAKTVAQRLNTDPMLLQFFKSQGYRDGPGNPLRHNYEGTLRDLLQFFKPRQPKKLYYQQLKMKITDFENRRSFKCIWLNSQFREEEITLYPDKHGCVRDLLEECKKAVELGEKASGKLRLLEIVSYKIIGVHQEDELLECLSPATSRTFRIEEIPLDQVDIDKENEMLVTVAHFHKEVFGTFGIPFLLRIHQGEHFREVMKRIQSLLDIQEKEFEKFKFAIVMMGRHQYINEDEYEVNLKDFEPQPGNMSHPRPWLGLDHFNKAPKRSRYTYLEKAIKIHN
measurement_notes: Inhibition of recombinant human N-terminal His6-tagged full length USP7 expressed in baculovirus infected Sf21 cells at 10 uM using monoubiquitinated ubiquitin-rhodamine as substrate incubated for 30 mins followed by Ub-Rho addition and measured after 2 hrs by spectrophotometry relative to control
particulars: time 2.5 hrs
Calls of active or inactive are those of the source. The rule behind the calls is not given here.

{"columns": ["query_smiles", "inhibition"],
 "data": [
  ["O=c1c2cnn(-c3ccc(F)cc3)c2ncn1CC1(O)CCN(c2ncccn2)CC1", "inactive"],
  ["O=c1c2cnn(-c3ccc(F)cc3)c2ncn1CC1(O)CCN(c2ncccc2Br)CC1", "32%"],
  ["O=c1c2cnn(-c3ccc(F)cc3)c2ncn1CC1(O)CCN(c2ncccc2Cl)CC1", "32%"],
  ["O=Cc1cccc(N2CCC(O)(Cn3cnc4c(cnn4-c4ccc(F)cc4)c3=O)CC2)n1", "inactive"]
]}
